- target_under_test: ribose binding protein RbsB (Escherichia coli)
- Sequence (P02925 26-296): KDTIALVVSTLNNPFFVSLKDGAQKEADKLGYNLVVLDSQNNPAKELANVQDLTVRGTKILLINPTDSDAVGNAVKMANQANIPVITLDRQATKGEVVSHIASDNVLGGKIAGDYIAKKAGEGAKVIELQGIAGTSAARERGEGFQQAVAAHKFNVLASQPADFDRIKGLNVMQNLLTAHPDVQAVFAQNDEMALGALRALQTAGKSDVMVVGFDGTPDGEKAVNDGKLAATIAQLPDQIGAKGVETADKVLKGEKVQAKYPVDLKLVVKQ
- test: ITC with purified protein, […]°C, one-site fit
attribute_measured: Kd (nM)
Report only the number, with the unit nM understood.

What is its Kd for ribose binding protein RbsB (Escherichia coli)? Entry: `O=C[C@H](O)[C@H](O)[C@H](O)CO` 125

Where do the numbers come from? From paper PMC4088097.
